Tested on: HEK293
measurementProtocol: Effective concentration against whole-cell patch clamp from […] HEK293 cells
Type: functional, cell-based, Homo sapiens
measurementContext: Homo sapiens, HEK293
Below, each of the compounds is paired with its reported log10(EC50) value.
Answers are given as log10 of EC50 in nM.

[in] Supply recorded log10(EC50) for C[C@H](NC(=O)/C=C/c1c(F)cccc1F)c1ccc2c(c1)CCO2 here.
[out] 2.52

[in] Supply recorded log10(EC50) for C[C@H](NC(=O)/C=C/c1ccccc1)c1cccc(N2CCOCC2)c1 here.
[out] 3.51

[in] Supply recorded log10(EC50) for CCOC(=O)Nc1ccc(NCc2ccc(F)cc2)cc1N [EZOGABINE] here.
[out] 3.11

[in] Supply recorded log10(EC50) for C[C@H](NC(=O)/C=C/c1ccccc1F)c1ccc2c(c1)CCN2 here.
[out] 2.63

[in] Supply recorded log10(EC50) for C[C@H](NC(=O)/C=C/c1ccccc1F)c1ccc2c(c1)N(CC1CC1)CCO2 here.
[out] 1.78

The origin of these recorded values is ChEMBL document CHEMBL1137190.
